System: NCI-H211 tumor spheroids, viability percent test/control
Experiment: Anticancer human tumor NCI-H211 cell line growth inhibition;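 note: spheroids exposed to agents for seven days before readout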
Conditions: second compound 0.0949 µM; first compound 10 µM; hits give low values; spheroids with HUVEC and MSC
MEASUREMENT_NAME: viability, T/C

q: Give the value of viability, T/C reported for the following: CC(C)n1c(=O)n(C)c2cnc3cc(F)c(-c4ccc(OCCCN5CCCCC5)nc4)cc3c21 + CC[C@@]1(O)C(=O)OCc2c1cc1n(c2=O)Cc2cc3c(CN(C)C)c(O)ccc3nc2-1
a: 0.57%

q: Give the value of viability, T/C reported for the following: COc1ccc([C@@H](O)c2cc(-c3ncnc4cc(N5CCOCC5)ccc34)c(F)cc2Cl)nn1 + CC[C@@]1(O)C(=O)OCc2c1cc1n(c2=O)Cc2cc3c(CN(C)C)c(O)ccc3nc2-1
a: 0.32%

q: Give the value of viability, T/C reported for the following: Cc1cc(C)c(CNC(=O)c2cc(-c3ccc(CN4CCOCC4)cc3)cc3c2cnn3C2CCCC2)c(=O)[nH]1 + CC[C@@]1(O)C(=O)OCc2c1cc1n(c2=O)Cc2cc3c(CN(C)C)c(O)ccc3nc2-1
a: 1.47%
